assay: Protein binding (plasma equilibrium dialysis); assay type: in vitro ADME; conditions: 5 hours at 37° C.
quantity: recovery at 5 h, 1 μM (%)

1. Cc1ccc(-c2ccc(Sc3[nH]nnc3C(=O)O)cc2)cc1 [Example I-129] = 113
2. Cc1cc(Oc2[nH]nnc2C(=O)O)ccc1Cl [Example I-258] = 110
3. O=C(O)c1nn[nH]c1Oc1cncc(-c2cccnc2)c1 [Example I-264] = 123
4. O=C(O)c1nn[nH]c1Oc1ccc2ccccc2c1 [Example I-058] = 101
5. COc1ccc(-c2ccc(Oc3[nH]nnc3C(=O)O)cc2)cc1 [Example I-153] = 116

---

assay: Stability in human plasma; assay type: in vitro ADME; conditions: read-out: Plasma Stability T1/2
quantity: half-life at 2 μM (h)

// known answers, use as guide
1. O=C(O)c1nn[nH]c1Oc1ccc2ccccc2c1 [Example I-058] = 0.852
2. CCC(CC)c1cccc(Oc2[nH]nnc2C(=O)O)c1 [Example I-276] = 3.2
3. O=C(O)c1nn[nH]c1Oc1cccc(C2CCCC2)c1 [Example I-267] = 1.15
4. C=Cc1ccc(Oc2[nH]nnc2C(=O)O)cc1 [Example I-285] = 8.02
5. O=C(O)c1nn[nH]c1Sc1ccc(Cl)cc1 [Example I-001] = 0.706
6. O=C(O)c1nn[nH]c1Oc1cccc(-c2ccc(Cl)cc2)c1 [Example I-252] = 5.02

(a) O=C(O)c1[nH]nnc1Oc1ccc(C2CCCCC2)cc1 [Example I-266]
(b) O=C(O)c1nn[nH]c1Sc1ccc(-c2ccccc2)cc1 [Example I-128]
Q. In the pair a and b , the larger recorded half-life at 2 μM belongs to which? # reply format: chosen label
A. a
(a: 3.11 h, b: 0.755 h)

(1) O=C(O)c1[nH]nnc1Oc1ccc(-c2ccc(Cl)cc2)cc1 [Example I-152]
(2) O=C(O)c1nn[nH]c1Oc1ccc(-c2ccc(Br)cc2)cc1 [Example I-154]
Q. In the pair 1 and 2 , the larger recorded half-life at 2 μM belongs to which? # reply format: chosen label
A. 1
(1: 3.22 h, 2: 1.85 h)

---

experiment: Solubility in aqueous solution (deionized, distilled water); assay type: physicochemical; conditions: kinetic from dmso stock, 1% DMSO, read-out: Aqueous Solubility H2O
quantity: solubility at 1 h (µM)

1. CC(C)Cc1ccc(Oc2[nH]nnc2C(=O)O)cc1 = 98.4
2. O=C(O)c1nn[nH]c1Oc1cccc(-c2ccccc2F)c1 = 106
3. O=C(O)c1nn[nH]c1Oc1cncc(-c2cccnc2)c1 = 105
4. C#Cc1cccc(Oc2[nH]nnc2C(=O)O)c1 = 80.6
5. CCCC(C)c1ccc(Oc2[nH]nnc2C(=O)O)cc1 (stereo not drawn) = 108

(a) O=C(O)c1nn[nH]c1Oc1cccc(-c2ccccc2)c1
(b) O=C(O)c1nn[nH]c1Oc1ccc(-c2ccccc2F)cc1
Q. In the pair a and b , the larger recorded solubility at 1 h belongs to which? # reply format: chosen label
A. a

---

molecular target: recombinant full-length human hydroxyacid oxidase 1 (HAO1), the equivalent of hGOX (Homo sapiens (Human)); test: In-vitro human glycolate oxidase (hGOX) assay (Amplex red/HRP fluorescence); format: biochemical
Sequence (Q9UJM8 whole entry): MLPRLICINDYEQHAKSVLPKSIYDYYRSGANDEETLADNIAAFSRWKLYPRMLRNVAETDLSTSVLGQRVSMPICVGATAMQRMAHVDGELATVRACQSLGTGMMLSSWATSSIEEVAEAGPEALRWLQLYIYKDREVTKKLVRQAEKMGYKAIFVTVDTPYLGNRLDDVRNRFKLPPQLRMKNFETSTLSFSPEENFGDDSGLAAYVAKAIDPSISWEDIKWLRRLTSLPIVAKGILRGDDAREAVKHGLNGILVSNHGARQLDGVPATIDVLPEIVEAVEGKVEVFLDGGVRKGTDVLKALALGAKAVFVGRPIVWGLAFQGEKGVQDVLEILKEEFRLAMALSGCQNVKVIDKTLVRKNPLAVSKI
quantity: IC50 (µM)

// known answers, use as guide
1) CCCC(C)c1cccc(Oc2[nH]nnc2C(=O)O)c1 (centres unmarked) = 0.065
2) O=C(O)c1nn[nH]c1Oc1cccc(-c2cccnc2)c1 = 0.018
3) O=C(O)c1nn[nH]c1Oc1cccc(S(F)(F)(F)(F)F)c1 = 0.105
4) CCCC(C)c1ccc(Oc2[nH]nnc2C(=O)O)cc1 (centres unmarked) = 0.045
5) O=C(O)c1nn[nH]c1Oc1cccc(C2CCCC2)c1 = 0.035
6) O=C(O)c1nn[nH]c1Oc1cccc(-c2ccc3ccccc3c2)c1 = 13

(1) O=C(O)c1nn[nH]c1Oc1ccc(Cl)cc1
(2) O=C(O)c1nn[nH]c1Oc1ccc(-c2ccc(Br)cc2)cc1
Q. In the pair 1 and 2 , the larger recorded IC50 belongs to which? # reply format: chosen label
A. 1
